Where these numbers come from: PubChem BioAssay (NCI)

Tested on: CAKI-1 renal
Test Protocol: NCI-60 one-dose screen, 48 h
Assay Setup: 10 µM unless noted
About 83,000 compounds went through this panel and 20% of them were active in at least one assay; those are over-represented in the sample as a whole. Calls of active or inactive are those of the source. The calls were made as follows: active = growth percent below 10; inactive = the rest.
# valid calls are class 1 = active, class 0 = inactive; nothing else

Req: Write down the call the test reported for this compound. Item: `COc1ccc(Cl)cc1NC(=O)c1c(NC(=O)C(F)(F)C(F)(F)F)sc2c1CCCCC2`
Resp: class 1

Req: Please indicate how the test categorized `COc1ccc(/C(=C\c2ccccc2)C(=O)O)cc1OC` .
Resp: class 0

Req: For `COc1cnccc1-c1nc2ccc3[nH]ncc3c2c2c1CCCC2` , which call appears in the assay record?
Resp: class 0

Req: Kindly provide the recorded test outcome for the following compound: `c1ccc(-c2nn(-c3ccccc3)[n+](-c3cccc4ccccc34)n2)cc1`
Resp: class 0

Req: Which outcome was assigned to `Cc1nc2sc(C(=O)Nc3ccccc3)c(N)c2cc1C(=O)c1ccc(C(F)(F)F)cc1` in this test?
Resp: class 0

For the next question, use this compound.
Req: Record request — test call for Cc1ccc(C2CC(c3cccc(Nc4ccncc4)c3)=NN2c2ccccc2)cc1 (stereo unspecified)
Resp: class 1
